Assay: In vitro release assay of probes 13–17 by HPLC in buffers simulating the GIT
Conditions: acetate buffer, pH 5
quantityName: half-life at 25 µM (min)
One number for each entry, in min.

INPUT: Which half-life at 25 µM is listed for `C#CCCCNCCCOC(=O)OCOc1ccc(/C=C/C2=CC(=C(C#N)C#N)c3ccccc3O2)cc1.Cl` ?
OUTPUT: 984

----------
What half-life at 25 µM was measured for each of the following?
Experiment: In vitro release assay of probes 13–17 by HPLC in buffers simulating the GIT
Settings: PBS, pH 7.5
One number for each entry, in h.

| compoundStructure | numericValue |
| --- | --- |
| C#CCCCNCCCCOC(=O)OCOc1ccc2c(-c3ccc(C(=O)O)cc3C)c3ccc(=O)cc-3oc2c1.Cl | 2.4 |

Turning now to a further record.
INPUT: Quick check: half-life at 25 µM of `C#CCCCNCCCOC(=O)OCOc1ccc(/C=C/C2=CC(=C(C#N)C#N)c3ccccc3O2)cc1.Cl` ?
OUTPUT: 0.113

----------
Hi there, I'd appreciate the recorded half-life at 25 µM for every entry that follows.
Experiment: In vitro release assay of probes 13–17 by HPLC in buffers simulating the GIT
Conditions: phosphate buffer, pH 6.5
Give bare numbers, in h.

| compoundStructure | measurementUnit | numericValue |
| --- | --- | --- |
| C#CCCCNCCCOC(=O)OCOc1ccc(/C=C/C2=CC(=C(C#N)C#N)c3ccccc3O2)cc1.Cl | h | 0.467 |

Next compound, half-life at 25 µM to be filled in.
INPUT: Would you mind telling me what half-life at 25 µM value was observed for `C#CCCCNCCCCOC(=O)OCOc1ccc2c(-c3ccc(C(=O)O)cc3C)c3ccc(=O)cc-3oc2c1.Cl` ?
OUTPUT: 13.2
